B1: Pistol ribozyme (parent)
chain: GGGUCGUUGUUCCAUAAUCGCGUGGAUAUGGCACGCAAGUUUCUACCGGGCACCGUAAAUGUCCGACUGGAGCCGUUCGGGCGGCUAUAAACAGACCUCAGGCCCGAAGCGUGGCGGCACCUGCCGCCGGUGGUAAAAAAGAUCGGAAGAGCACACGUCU

variants of: B1; assay: aptazyme ON/OFF ratio, guanine; higher = stronger switching; co-transcriptional cleavage with and without guanine
Attribute: aptazyme ON/OFF ratio
PARAMETER_MEASURED: aptazyme ON/OFF ratio

>>> data_value("U8C G9C U10A C12A")
1.11
>>> data_value("U7G U8A G9A U10A C12U C13U")
1.03
>>> data_value("U7C G9A U10G U11A C13A")
1.06
>>> data_value("U7A U8C U10A U11C C12G C13G")
1.27
>>> data_value("U7C G9A U10G C12G")
1.28
>>> data_value("U7G U8G U10C C12G C13U")
1.33
>>> data_value("U8C G9A U10A C12U C13G")
1.24
>>> data_value("U7C U8A G9A U10C")
3.41
>>> data_value("U7C G9A U10G C13A")
1.19
>>> data_value("U7G U8A G9A U10C U11C C12G")
1.09
>>> data_value("U7A U8C U10G C12G C13A")
1.09
>>> data_value("U8G G9C C12A C13G")
1.03
>>> data_value("G9C U10G U11C C12U")
1.08
>>> data_value("U7A U8G U10C U11C C12A C13A")
1.61
>>> data_value("U7A U8G G9U U10G U11G C12G")
1.35
>>> data_value("U7C U8A G9A U10A U11A C12U C13G")
1.17
>>> data_value("U7A U8A G9U U10G U11C C12A C13G")
1.15
>>> data_value("U8C G9U U10A U11C C12A C13G")
1.08
>>> data_value("U7C G9A U10G U11A C12U C13G")
1.14
>>> data_value("U7A U8G G9C U10A U11G C12U C13A")
1.21
>>> data_value("U7C G9U U11C C12U")
1.16
>>> data_value("U7A U8G G9A U10A U11C C12U C13G")
1.17
>>> data_value("U7G U8A G9C U10C U11A")
0.986
>>> data_value("U7C U8G G9U U10A U11A C13A")
1.19
>>> data_value("U8C U10A C12G C13A")
1.17
>>> data_value("U8C G9A U10C C13A")
1.06
>>> data_value("U7C U8A G9C U10G C12A")
1.17
>>> data_value("U7C G9C U10C U11C C12A C13U")
1.04
>>> data_value("U8G U10G U11C")
1.05
>>> data_value("U8A G9C U10G U11C C12G C13G")
1.17
>>> data_value("U7C G9U U10C U11G C12U C13A")
1.14
>>> data_value("U8G U10C U11A C12G C13G")
1.09
>>> data_value("U7A U8A G9U U10A U11G C12U C13G")
1.15
>>> data_value("U7G U8A G9A U10A C12G C13A")
1.06
>>> data_value("U7C U8A G9U U10A U11A C13A")
1.13
>>> data_value("U7C G9C U10A U11G C12A")
1.11
>>> data_value("U7A U8G G9C U10C C12A C13G")
1.05
>>> data_value("G9U U10C U11A C12A")
1.47
>>> data_value("U7G U10G U11C C12A")
1.25
>>> data_value("U7G U8C G9C U10G U11C C12A C13G")
1.18
>>> data_value("U7C U8G G9U U10G U11A C13G")
1.08
>>> data_value("G9A U11G C12G C13G")
1.3
>>> data_value("U8G U11C C13U")
1.37
>>> data_value("U7A U8G G9U U10G U11A")
1.16
>>> data_value("U7G U8A G9A U10C U11C C12A C13G")
1.25
>>> data_value("U7A G9U U10G U11C C12G C13A")
1.15
